Data provenance is patent US7323480B2.

# Tested on: mouse PPAR α (Mus musculus)
# Construct: expressed in transfected cells; host or cells: HEK293T
# Sequence (P23204 239-466 limits assumed): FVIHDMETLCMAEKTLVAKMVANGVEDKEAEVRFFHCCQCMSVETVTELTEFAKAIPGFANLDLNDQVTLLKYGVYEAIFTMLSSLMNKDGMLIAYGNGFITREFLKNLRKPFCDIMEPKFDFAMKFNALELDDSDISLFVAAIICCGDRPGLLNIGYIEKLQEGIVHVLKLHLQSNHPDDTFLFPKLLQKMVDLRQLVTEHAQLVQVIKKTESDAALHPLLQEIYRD
# Protocol summary: PPAR α transactivation (GAL4 chimera luciferase gene activation) assay
# Format: cell-based
# Run parameters: GAL4 DNA binding domain-PPAR α ligand binding domain chimera, pFR-Luc reporter, HEK293T cells, 20 hours incubation; read-out: Gene Activation Assay: EC50 PPAR alpha
pEC50: −log10 of the molar value.
Item-by-item account of pEC50

[[record]]
molecule = "Cc1cc(SCc2nn(-c3cccc(C(F)(F)F)c3)nc2C)ccc1OCC(=O)O [Compound 480]"
assay_value = "≥ 5.00"


### Prompt Record request: pEC50 value, item Cc1cc(SCc2nn(-c3ccc(C(F)(F)F)cc3)nc2C(C)C)ccc1OCC(=O)O [Compound 320]
### Response < 5.00

### Prompt Next molecule up: Cc1cc(SCc2nn(-c3ccc(Cl)c(Cl)c3)nc2C)ccc1OCC(=O)O [Compound 640]
### Response < 5.00

### Prompt Next molecule up: Cc1cc(SCc2nn(-c3ccc(C(F)(F)F)cc3)nc2C)ccc1OC(C)(C)C(=O)O [Compound 210]
### Response ≥ 5.00

### Prompt Next molecule up: Cc1cc(SCCc2nn(-c3ccc(C(F)(F)F)cc3)nc2C)ccc1OCC(=O)O [Compound 580]
### Response ≥ 5.00

### Prompt Next molecule up: Cc1nn(-c2ccc(C(F)(F)F)cc2)nc1COc1ccc(CC(=O)O)cc1 [Compound 670]
### Response < 5.00

### Prompt Next molecule up: CCCc1cc(CC(=O)O)ccc1OCc1nn(-c2ccc(C(F)(F)F)cc2)nc1C [Compound 660]
### Response < 4.52

### Prompt Next molecule up: Cc1cc(SCc2nn(-c3ccc(C(F)(F)F)cc3)nc2C)ccc1OCC(=O)O [Compound 100]
### Response < 5.00
